These measurements were taken from paper PMC12057046.

screen value: recorded values
B1: TET3 peptide 1705-1720 (methylcytosine dioxygenase TET3), 16-mer library wild type / USP8 rhodanese domain (ubiquitin carboxyl-terminal hydrolase 8, residues 174-317) (parent)
chain 1: GLALWEAKMKQLAERA
chain 2: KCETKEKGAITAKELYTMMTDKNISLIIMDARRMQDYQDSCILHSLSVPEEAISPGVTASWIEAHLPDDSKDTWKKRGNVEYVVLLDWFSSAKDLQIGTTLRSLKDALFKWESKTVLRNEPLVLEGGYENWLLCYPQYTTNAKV

- Variants of: B1
- ASSAY_REMARKS: peptide-phage display deep mutational scan (M13, 16-mer library, displayed with a C-terminal GGGSG linker encoded by the 3' flank) selected against the GST-tagged USP8 rhodanese domain, four rounds; NGS counts summed over selection …
- RUN_CONDITIONS: with USP8 rhodanese domain (ubiquitin carboxyl-terminal hydrolase 8, residues 174-317), 10 µg GST-bait on MaxiSorp, pre-cleared on GST, 2 h at 4 °C, five washes with 0.05% Tween 20 in PBS, not graded, scale: average over two replicas of the peptide's fractional NGS count
# respond with the number and nothing more

Consider the following illustrative entries.
{"MUTATIONS": "chain 1 M9L", "OBSERVED_VALUE": "4.33e-06"}
{"MUTATIONS": "chain 1 L4M", "OBSERVED_VALUE": 0.0286}
{"MUTATIONS": "chain 1 R15V", "OBSERVED_VALUE": "2.45e-05"}
{"MUTATIONS": "chain 1 K10D", "OBSERVED_VALUE": 0.000192}
{"MUTATIONS": "chain 1 A3H", "OBSERVED_VALUE": "8.66e-06"}

Then there is this variant:
# input variant: chain 1 A3V ; wanted: its screen value 0.000173
